Value source: patent US20260365653A1

Molecular target: mutEGFR (D770_N771insSVD) (Homo sapiens, UniProt P00533, DUP768-770)
Construct: GST-EGFR #3 (SVD between D770 and N771); made in house; host or cells: Sf9 insect cells (baculovirus)
Sequence (P00533 with tags, fused parts or gaps DUP768-770): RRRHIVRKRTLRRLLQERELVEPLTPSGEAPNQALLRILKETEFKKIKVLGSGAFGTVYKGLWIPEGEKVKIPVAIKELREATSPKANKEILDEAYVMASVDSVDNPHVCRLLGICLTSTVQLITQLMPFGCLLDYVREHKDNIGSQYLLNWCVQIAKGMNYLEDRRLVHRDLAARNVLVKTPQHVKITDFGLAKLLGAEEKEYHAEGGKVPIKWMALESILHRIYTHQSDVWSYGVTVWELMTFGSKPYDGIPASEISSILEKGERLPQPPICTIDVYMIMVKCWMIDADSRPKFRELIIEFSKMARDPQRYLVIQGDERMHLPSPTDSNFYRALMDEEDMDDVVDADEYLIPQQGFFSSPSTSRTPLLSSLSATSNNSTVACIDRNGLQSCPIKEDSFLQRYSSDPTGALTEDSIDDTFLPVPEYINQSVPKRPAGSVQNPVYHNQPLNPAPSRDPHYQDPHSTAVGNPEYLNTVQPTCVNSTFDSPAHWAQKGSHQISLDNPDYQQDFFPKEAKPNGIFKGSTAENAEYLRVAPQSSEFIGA
Assay: Exon20-Mutant-EGFR (D770_N771insSVD) kinase assay (TR-FRET)
Assay type: biochemical
Conditions: mutEGFR (D770_N771insSVD) kinase assay IC50, Table 2a; D770_N771insSVD; 2 mM ATP
pIC50: −log10 of the molar value.
observation.type: pIC50

Here's what some known entries look like.
- molecule: "C=CC(=O)N1CCn2nc(-c3cccc(C(F)(F)F)c3)c(-c3ccnc4[nH]cc(C)c34)c2C1"
  recorded.number: 6.68
- molecule: "C=C(F)C(=O)N1CCn2nc(-c3ccc(F)cc3)c(-c3ccncc3)c2C1"
  recorded.number: 7.25

(1) CN(C)C/C=C/C(=O)N1Cc2c(-c3ccncc3)c(-c3ccc(F)cc3)nn2C(CCO)C1 (racemic)
(2) CN(C)C/C=C/C(=O)N1CCn2nc(-c3ccc(Cl)cc3CO)c(-c3ccncc3)c2C1
Request: // compare measured pIC50 between 1 and 2 ; output the lower one In your reply, give the label of the chosen option.
Result: 2

* * *

Biological target: mutEGFR (D770_N771insSVD) (Homo sapiens, UniProt P00533, DUP768-770)
Construct: GST-EGFR #3 (SVD between D770 and N771); made in house; host or cells: Sf9 insect cells (baculovirus)
Assay: Exon20-Mutant-EGFR (D770_N771insSVD) kinase assay (TR-FRET)
Format: biochemical
Conditions: mutEGFR (D770_N771insSVD) kinase assay IC50, Table 2a; D770_N771insSVD; 2 mM ATP
pIC50: −log10 of the molar value.
observation.type: pIC50

(P) O=C(C#CC1CCCN1)N1CCn2nc(-c3ccc(F)cc3)c(-c3ccncc3)c2C1 (racemic) [Example 88]
(Q) Cc1c[nH]c2nccc(-c3c(-c4cccc(C#N)c4)nn4c3CN(C(=O)/C=C/CN(C)C)CC4)c12 [Example 61]
(R) C=CC(=O)N1Cc2c(-c3ccncc3)c(-c3ccc(OC)cc3)nn2CC1C (racemic) [Example 228]
Request: Sort these compounds on pIC50 so the largest reading comes first. # list labels per requested ordering
Result: R, P, Q
(R: 9.14, P: 8.03, Q: 5.62)

* * *

Target: mutEGFR (D770_N771insNPG, T790) (Homo sapiens, UniProt P00533, INS770NPG/T790M)
Construct: exact insNPG construct not described; in-house EGFR proteins were N-terminal GST fusions from baculovirus/insect cells (borders R669-A1210 given only for WT, insSVD, insASV)
Sequence (P00533 with tags, fused parts or gaps INS770NPG/T790M limits assumed): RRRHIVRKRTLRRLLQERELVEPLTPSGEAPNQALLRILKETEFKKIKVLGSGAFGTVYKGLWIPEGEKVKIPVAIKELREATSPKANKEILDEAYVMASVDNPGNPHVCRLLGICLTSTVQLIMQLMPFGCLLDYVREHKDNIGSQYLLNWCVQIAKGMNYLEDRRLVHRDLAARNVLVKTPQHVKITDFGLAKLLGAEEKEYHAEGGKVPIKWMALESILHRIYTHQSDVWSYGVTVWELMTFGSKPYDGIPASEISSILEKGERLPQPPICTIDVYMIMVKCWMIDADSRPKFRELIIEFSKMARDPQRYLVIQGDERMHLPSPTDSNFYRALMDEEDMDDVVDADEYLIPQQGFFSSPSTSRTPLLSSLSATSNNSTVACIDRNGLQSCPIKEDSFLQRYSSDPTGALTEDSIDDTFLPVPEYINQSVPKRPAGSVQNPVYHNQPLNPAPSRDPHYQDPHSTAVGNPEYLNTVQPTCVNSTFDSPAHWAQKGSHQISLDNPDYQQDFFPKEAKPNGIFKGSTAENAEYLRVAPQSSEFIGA
Experiment: mutEGFR (D770_N771insNPG, T790) kinase assay
Type: biochemical
Details: Table 2a, D770_N771insNPG
observation.type: IC50 (nM)

(A) CN(C)C/C=C/C(=O)N1Cc2c(-c3ccncc3)c(-c3ccc(Cl)cc3)nn2C(C)(C)C1 [Example 215]
(B) C=CC(=O)N1CCn2nc(-c3ccc(OC)cc3)c(-c3ccncc3)c2C1C (racemic) [Example 241]
(C) C=CC(=O)N1CCn2nc(-c3ccc(Cl)cc3F)c(-c3ccncc3)c2C1 [Example 37]
Request: Sort these compounds on IC50 so the largest reading comes first. # list labels per requested ordering
Result: B, A, C

* * *

Target: mutEGFR (D770_N771insSVD) (Homo sapiens, UniProt P00533, DUP768-770)
Construct: GST-EGFR #3 (SVD between D770 and N771); made in house; host or cells: Sf9 insect cells (baculovirus)
Experiment: Exon20-Mutant-EGFR (D770_N771insSVD) kinase assay (TR-FRET)
Format: biochemical
Conditions: mutEGFR (D770_N771insSVD) kinase assay IC50, Table 2a; D770_N771insSVD; 2 mM ATP
pIC50: −log10 of the molar value.
observation.type: pIC50

(I) C=C(F)C(=O)N1Cc2c(-c3ccncc3)c(-c3ccc4ccsc4c3)nn2CC1C (racemic)
(II) C[C@@H]1Cn2nc(-c3cccc(C#N)c3)c(-c3ccncc3)c2CN1C(=O)/C=C/CN(C)C
(III) Cc1c[nH]c2nccc(-c3c(-c4ccc(F)cc4)nn4c3C(C)N(C(=O)/C=C/CN(C)C)CC4)c12 (single isomer, unassigned; isomer 2) [Example 256]
Request: Sort these compounds on pIC50 so the largest reading comes first. # list labels per requested ordering
Result: I, II, III

* * *

Biological target: mutEGFR (D770_N771insSVD) (Homo sapiens, UniProt P00533, DUP768-770)
Construct: GST-EGFR #3 (SVD between D770 and N771); made in house; host or cells: Sf9 insect cells (baculovirus)
Experiment: Exon20-Mutant-EGFR (D770_N771insSVD) kinase assay (TR-FRET)
Format: biochemical
Settings: mutEGFR (D770_N771insSVD) kinase assay IC50, Table 2a; D770_N771insSVD; 2 mM ATP
pIC50: −log10 of the molar value.
observation.type: pIC50

Here's what some known entries look like.
- molecule: "C=CC(=O)N1CCn2nc(-c3ccc(Cl)cc3F)c(-c3c(F)cnc4[nH]ccc34)c2C1"
  subject.of.test: "mutEGFR (D770_N771insSVD) (Homo sapiens, UniProt P00533, DUP768-770)"
  pIC50: 8.18
- molecule: "C#CC(=O)N1CCn2nc(-c3ccc(F)cc3)c(-c3ccncc3)c2C1"
  subject.of.test: "mutEGFR (D770_N771insSVD) (Homo sapiens, UniProt P00533, DUP768-770)"
  pIC50: 9.09
- molecule: "C=CC(=O)N1CCn2nc(-c3ccc4[nH]ccc4c3)c(-c3ccncc3)c2C1"
  subject.of.test: "mutEGFR (D770_N771insSVD) (Homo sapiens, UniProt P00533, DUP768-770)"
  pIC50: 9.08

(I) C=CC(=O)N1CCn2nc(-c3cccc4ccoc34)c(-c3ccncc3)c2C1
(II) C=CC(=O)N1Cc2c(-c3ccncc3)c(-c3ccc(F)cc3)nn2C(CC(=O)NC)C1 (centres unmarked)
Request: // compare measured pIC50 between I and II ; output the lower one In your reply, give the label of the chosen option.
Result: II
(II: 8.00, I: 9.07)

* * *

Target: mutEGFR (D770_N771insSVD) (Homo sapiens, UniProt P00533, DUP768-770)
Construct: GST-EGFR #3 (SVD between D770 and N771); made in house; host or cells: Sf9 insect cells (baculovirus)
Experiment: Exon20-Mutant-EGFR (D770_N771insSVD) kinase assay (TR-FRET)
Assay type: biochemical
Conditions: mutEGFR (D770_N771insSVD) kinase assay IC50, Table 2a; D770_N771insSVD; 2 mM ATP
observation.type: IC50 (nM)

- molecule: "C=CC(=O)N1CCn2nc(-c3cccc(Cl)c3)c(-c3ccncc3)c2C1"
  units.of.measure: "nM"
  IC50: 3.01

(I) CC(C)(C)OC(=O)NCC#CC(=O)N1CCn2nc(-c3ccc(F)cc3)c(-c3ccncc3)c2C1
(II) COc1ccc(-c2nn3c(c2-c2ccncc2)CN(C(=O)/C=C/CN(C)C)CC3)cc1
(III) Cc1c[nH]c2nccc(-c3c(-c4ccc(C(F)(F)F)cc4)nn4c3C(C)N(C(=O)/C=C/CN(C)C)CC4)c12 (single isomer, unassigned; isomer 1) [Example 265]
Request: Kindly order the items shown according to IC50, from the highest value down. # list labels per requested ordering
Result: III, II, I

* * *

Collected IC50 values appear next to each entry.
Tested on: BA/F3 (insSVD) cells
Assay: Ba/F3-EGFR-insSVD cell survival assay (Cell Titer-Glo)
Format: cell-based
Conditions: Mus musculus, BaF3, 48 h, Table 3a, cell survival, Cell Titer-Glo, with 10 ng/ml EGF, without IL-3
Could you give me the number in nM? Just the number is fine.

- compound: "CN(C)C/C=C/C(=O)N1Cc2c(-c3ccncc3)c(-c3ccc(F)cc3)nn2C(CC(N)=O)C1 (racemic) [Example 220]"
  subject.of.test: "BA/F3 (insSVD) cells"
  units.of.measure: "nM"
  IC50: 5880
- compound: "CN(C)C/C=C/C(=O)N1Cc2c(-c3ccncc3)c(-c3ccc(F)cc3)nn2CC1(C)C [Example 216]"
  subject.of.test: "BA/F3 (insSVD) cells"
  units.of.measure: "nM"
  IC50: 418
- compound: "CN(C)C/C=C/C(=O)N1CCn2nc(-c3ccc4occc4c3)c(-c3ccncc3)c2C1 [Example 199]"
  subject.of.test: "BA/F3 (insSVD) cells"
  units.of.measure: "nM"
  IC50: 132
- compound: "C=CC(=O)N1Cc2c(-c3ccncc3)c(-c3ccc4ccccc4c3)nn2CC1C (racemic) [Example 232]"
  subject.of.test: "BA/F3 (insSVD) cells"
  units.of.measure: "nM"
  IC50: 15.5
- compound: "C=CC(=O)N1Cc2c(-c3ccncc3)c(-c3ccc4ccsc4c3)nn2CC1C (racemic) [Example 234]"
  subject.of.test: "BA/F3 (insSVD) cells"
  units.of.measure: "nM"
  IC50: 122
- compound: "C=CC(=O)N1CCn2nc(Nc3ccc(OC)c(F)c3)c(-c3ccncc3)c2C1 [Example 96]"
  subject.of.test: "BA/F3 (insSVD) cells"
  units.of.measure: "nM"
  IC50: 7930

Request: Report measured IC50 on BA/F3 (insSVD) cells; entry: CC(C)(C)NC/C=C/C(=O)N1CCn2nc(-c3ccc(Cl)cc3)c(-c3ccncc3)c2C1 [Example 167]
Result: 35.2
